# measured target: Dipeptidyl peptidase 2 (Homo sapiens)
Listing: IC50 of selected molecules
parameter measured: IC50 (µM)

chem smiles	meas value
CC(=O)c1ccc(N2C[C@@H]3[C@H](C2)[C@H]3NCC(=O)N2C[C@@H](F)C[C@H]2C#N)cc1	9
N#Cc1cc(C(F)(F)F)ccc1N1C[C@@H]2[C@H](C1)[C@H]2NCC(=O)N1C[C@@H](F)C[C@H]1C#N	4.33
N#Cc1c(F)cc(N2C[C@@H]3[C@H](C2)[C@H]3NCC(=O)N2C[C@@H](F)C[C@H]2C#N)cc1F	10.9
N#Cc1ccc(N2C[C@@H]3[C@H](C2)[C@H]3NCC(=O)N2C[C@@H](F)C[C@H]2C#N)cc1Cl	0.907

* * *

# measured target: Dipeptidyl peptidase 8 (Homo sapiens)
# Sequence (Q6V1X1 whole entry): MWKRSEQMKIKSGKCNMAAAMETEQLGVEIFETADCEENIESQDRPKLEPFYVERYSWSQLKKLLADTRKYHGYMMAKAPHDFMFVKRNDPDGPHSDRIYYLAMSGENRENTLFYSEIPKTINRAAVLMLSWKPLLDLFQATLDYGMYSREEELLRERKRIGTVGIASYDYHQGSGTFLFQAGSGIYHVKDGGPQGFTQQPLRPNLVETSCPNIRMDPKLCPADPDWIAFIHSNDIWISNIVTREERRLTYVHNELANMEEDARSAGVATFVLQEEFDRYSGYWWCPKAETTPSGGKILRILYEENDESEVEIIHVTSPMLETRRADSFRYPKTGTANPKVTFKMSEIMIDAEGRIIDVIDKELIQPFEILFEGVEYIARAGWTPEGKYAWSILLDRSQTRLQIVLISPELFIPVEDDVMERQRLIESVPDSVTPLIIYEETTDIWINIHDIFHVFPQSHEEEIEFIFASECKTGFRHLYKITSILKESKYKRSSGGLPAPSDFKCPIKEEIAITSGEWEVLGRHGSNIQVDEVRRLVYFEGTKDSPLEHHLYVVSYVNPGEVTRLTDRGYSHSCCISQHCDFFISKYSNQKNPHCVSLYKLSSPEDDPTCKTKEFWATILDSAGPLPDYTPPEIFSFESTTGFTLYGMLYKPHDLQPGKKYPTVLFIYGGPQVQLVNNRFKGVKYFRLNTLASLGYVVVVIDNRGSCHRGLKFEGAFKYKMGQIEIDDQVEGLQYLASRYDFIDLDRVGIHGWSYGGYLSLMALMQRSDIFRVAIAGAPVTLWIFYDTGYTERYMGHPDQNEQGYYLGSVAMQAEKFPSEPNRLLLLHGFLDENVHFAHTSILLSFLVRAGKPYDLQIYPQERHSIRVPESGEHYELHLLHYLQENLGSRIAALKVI

chem smiles	measured target	IC50
N#Cc1c(F)cccc1N1C[C@@H]2[C@H](C1)[C@H]2NCC(=O)N1C[C@@H](F)C[C@H]1C#N	Dipeptidyl peptidase 8 (Homo sapiens)	> 10 µM

* * *

Listing: IC50 of selected molecules
# measured target: UniProt:P48147
# Sequence (P48147 whole entry): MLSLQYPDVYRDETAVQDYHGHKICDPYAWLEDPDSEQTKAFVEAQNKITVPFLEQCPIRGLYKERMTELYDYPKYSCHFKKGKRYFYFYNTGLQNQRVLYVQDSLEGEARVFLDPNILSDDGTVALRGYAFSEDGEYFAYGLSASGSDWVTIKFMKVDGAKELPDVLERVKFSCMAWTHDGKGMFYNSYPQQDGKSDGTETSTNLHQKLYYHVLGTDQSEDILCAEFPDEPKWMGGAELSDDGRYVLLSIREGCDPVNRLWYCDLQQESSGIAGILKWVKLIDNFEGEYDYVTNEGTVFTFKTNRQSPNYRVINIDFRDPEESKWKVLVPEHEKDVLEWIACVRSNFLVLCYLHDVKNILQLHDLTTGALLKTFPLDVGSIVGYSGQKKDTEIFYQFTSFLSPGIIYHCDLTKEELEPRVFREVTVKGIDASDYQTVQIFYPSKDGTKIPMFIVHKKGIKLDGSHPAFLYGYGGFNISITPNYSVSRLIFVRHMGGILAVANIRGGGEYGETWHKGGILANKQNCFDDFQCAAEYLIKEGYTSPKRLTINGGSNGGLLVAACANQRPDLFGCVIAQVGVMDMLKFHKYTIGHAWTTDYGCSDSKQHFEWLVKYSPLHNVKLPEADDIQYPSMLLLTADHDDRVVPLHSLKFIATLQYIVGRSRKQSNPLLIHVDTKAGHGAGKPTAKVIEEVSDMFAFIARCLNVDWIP
parameter measured: IC50

chem smiles	measured target	meas value
N#C[C@@H]1C[C@H](F)CN1C(=O)CN[C@H]1[C@@H]2CN(c3ccc([N+](=O)[O-])cn3)C[C@@H]21	UniProt:P48147	8.5 µM
N#C[C@@H]1C[C@H](F)CN1C(=O)CN[C@H]1[C@@H]2CN(c3ncccc3[N+](=O)[O-])C[C@@H]21	UniProt:P48147	> 10 µM
N#Cc1ccc(N2C[C@@H]3[C@H](C2)[C@H]3NCC(=O)N2C[C@@H](F)C[C@H]2C#N)nc1	UniProt:P48147	> 100 µM
N#C[C@@H]1C[C@H](F)CN1C(=O)CN[C@H]1[C@@H]2CN(c3nc4ccccc4s3)C[C@@H]21	UniProt:P48147	> 10 µM
N#Cc1cccc(F)c1N1C[C@@H]2[C@H](C1)[C@H]2NCC(=O)N1C[C@@H](F)C[C@H]1C#N	UniProt:P48147	> 10 µM
N#Cc1cc(F)ccc1N1C[C@@H]2[C@H](C1)[C@H]2NCC(=O)N1C[C@@H](F)C[C@H]1C#N	UniProt:P48147	> 10 µM
N#C[C@@H]1C[C@H](F)CN1C(=O)CN[C@H]1[C@@H]2CN(c3nccc(C(F)(F)F)n3)C[C@@H]21	UniProt:P48147	> 100 µM
N#Cc1ccccc1N1C[C@@H]2[C@H](C1)[C@H]2NCC(=O)N1C[C@@H](F)C[C@H]1C#N	UniProt:P48147	> 10 µM
N#Cc1c(F)cc(N2C[C@@H]3[C@H](C2)[C@H]3NCC(=O)N2C[C@@H](F)C[C@H]2C#N)cc1F	UniProt:P48147	9.7 µM
N#C[C@@H]1C[C@H](F)CN1C(=O)CN[C@H]1[C@@H]2CN(c3ccc(Cl)cn3)C[C@@H]21	UniProt:P48147	9.04 µM
